molecular target: T1, human MSLN-R2-his protein (human, UniProt Q13421 391-486); test: ELISA on coated antigen, antibody 200 nM
T1 construct: it is put last here; also called human MSLN-R2 protein; hMSLN-R2-his; not shown: His tag
T1 sequence (Q13421 other isoform, or with tags, fused parts or gaps): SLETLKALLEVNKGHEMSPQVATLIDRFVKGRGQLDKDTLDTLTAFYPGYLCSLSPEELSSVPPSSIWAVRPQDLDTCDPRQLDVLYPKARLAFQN
Parameter: OD450. Scope: all listed entries.

Binder	Unit of measurement	OD450
S009-F7.11.11 (antibody, human IgG1, kappa, V domains shown, Human-murine chimeric antibody, human IgG1 heavy and kappa light constant regions) VH: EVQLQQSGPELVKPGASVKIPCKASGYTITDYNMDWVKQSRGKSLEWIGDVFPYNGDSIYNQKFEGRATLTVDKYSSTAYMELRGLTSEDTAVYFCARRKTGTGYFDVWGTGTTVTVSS VL: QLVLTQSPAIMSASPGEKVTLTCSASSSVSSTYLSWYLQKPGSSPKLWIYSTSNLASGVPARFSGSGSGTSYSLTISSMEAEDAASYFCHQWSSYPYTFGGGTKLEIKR	OD	0.07
S009-F7.67.12 (antibody, human IgG1, kappa, V domains shown, Human-murine chimeric antibody, human IgG1 heavy and kappa light constant regions) VH: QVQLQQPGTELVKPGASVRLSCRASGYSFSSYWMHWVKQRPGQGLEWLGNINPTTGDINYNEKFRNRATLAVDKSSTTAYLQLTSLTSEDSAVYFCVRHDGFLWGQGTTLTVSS VL: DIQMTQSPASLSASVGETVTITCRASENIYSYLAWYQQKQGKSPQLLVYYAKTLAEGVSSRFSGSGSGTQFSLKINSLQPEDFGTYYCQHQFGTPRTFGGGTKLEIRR	OD	0.1
S009-F7.30.5 (antibody, human IgG1, kappa, V domains shown, Human-murine chimeric antibody, human IgG1 heavy and kappa light constant regions) VH: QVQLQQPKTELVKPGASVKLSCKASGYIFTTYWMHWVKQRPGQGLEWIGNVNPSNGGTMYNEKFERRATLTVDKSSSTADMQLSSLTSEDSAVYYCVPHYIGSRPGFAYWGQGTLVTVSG VL: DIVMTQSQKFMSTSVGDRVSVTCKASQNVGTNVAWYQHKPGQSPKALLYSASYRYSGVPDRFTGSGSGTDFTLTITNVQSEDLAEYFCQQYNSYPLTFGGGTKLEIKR	OD	0.5
S009-F7.26.15 (antibody, human IgG1, kappa, V domains shown, Human-murine chimeric antibody, human IgG1 heavy and kappa light constant regions) VH: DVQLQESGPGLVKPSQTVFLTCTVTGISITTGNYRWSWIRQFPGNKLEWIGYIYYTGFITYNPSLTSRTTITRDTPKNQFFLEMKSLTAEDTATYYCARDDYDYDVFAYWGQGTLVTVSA VL: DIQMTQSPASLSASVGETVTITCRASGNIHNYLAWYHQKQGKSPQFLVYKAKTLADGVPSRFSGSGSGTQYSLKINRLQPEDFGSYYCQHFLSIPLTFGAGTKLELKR	OD	0.18
S009-F7.61.21 (antibody, human IgG1, kappa, V domains shown, Human-murine chimeric antibody, human IgG1 heavy and kappa light constant regions) VH: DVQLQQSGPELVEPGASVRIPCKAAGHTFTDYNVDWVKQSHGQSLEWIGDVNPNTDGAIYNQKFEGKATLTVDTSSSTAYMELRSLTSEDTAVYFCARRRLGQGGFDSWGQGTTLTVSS VL: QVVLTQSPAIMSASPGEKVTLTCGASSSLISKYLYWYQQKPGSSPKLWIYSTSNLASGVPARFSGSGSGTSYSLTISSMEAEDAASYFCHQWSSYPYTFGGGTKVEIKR	OD	0.09
